Each item that follows carries a reported koff.
Biological target: T1, HSP70 (human HSP70; the antigen of the binning, humanization and variant binding assays) (human, UniProt P0DMV8 1-641, limits assumed)
T1 construct: also called hu HSP70
T1 sequence (P0DMV8 whole entry, change not shown): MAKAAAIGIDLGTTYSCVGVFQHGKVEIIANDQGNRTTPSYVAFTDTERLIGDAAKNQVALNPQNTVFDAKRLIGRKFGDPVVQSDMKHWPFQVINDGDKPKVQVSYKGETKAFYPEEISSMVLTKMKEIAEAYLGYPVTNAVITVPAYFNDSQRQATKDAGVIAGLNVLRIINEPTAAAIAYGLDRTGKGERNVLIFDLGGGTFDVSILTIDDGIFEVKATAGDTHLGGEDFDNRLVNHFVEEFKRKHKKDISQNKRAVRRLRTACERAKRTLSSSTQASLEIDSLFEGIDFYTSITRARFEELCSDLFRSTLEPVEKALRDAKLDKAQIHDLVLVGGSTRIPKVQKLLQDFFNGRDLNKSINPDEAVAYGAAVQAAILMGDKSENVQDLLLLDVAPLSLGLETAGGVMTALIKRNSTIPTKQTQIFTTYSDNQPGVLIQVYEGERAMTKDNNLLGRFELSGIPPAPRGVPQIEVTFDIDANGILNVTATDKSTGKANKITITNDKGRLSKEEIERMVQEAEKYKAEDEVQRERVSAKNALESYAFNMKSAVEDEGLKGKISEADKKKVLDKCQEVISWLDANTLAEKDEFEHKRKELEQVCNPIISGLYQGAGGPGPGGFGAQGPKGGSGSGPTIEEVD
Test: BLI, antibody on sensor
measuredAttribute: koff (s⁻¹)

binder: h77A-23 (antibody, V domains shown) VH: QIQLVQSGPEVKKPGESVKVSCKASGYTFTNYGMNWVRQAPGKGLEWMGWINTYTGEPTYADDFKGRVTITRDTSASTAYMELSSLRSEDTAVYFCARYDHAMDYWGQGTSVTVSS VL: DVVMTQSPDSLAVSLGERVTINCKSSQSLLNSGTRKNYLAWYQQKPGQSPKLLIYWTSTRESGVPDRFSGSGSGTDFTLTISSLQAEDVAVYYCKQSYTLYTFGQGTKLEIK
quantityUnit: s⁻¹
measuredValue: 0.000447
--
binder: h77A-13 (antibody, V domains shown) VH: QVQLQQSGPEVKKPGASVKISCKTSGYTFTNYGMNWVRQAPGQGLEWMGWINTYTGEPTYADDFKGRVTMTTDTSTSTAYLELTGLMSDDTAVYFCARYDHAMDYWGQGTTVTVSS VL: DVVMTQSPDSLAVSLGERVTINCKSSQSLLNSGTRKNYLAWYQQKPGQSPKLLIYWTSTRESGVPDRFSGSGSGTDFTLTISSLQAEDVAVYYCKQSYTLYTFGQGTKLEIK
quantityUnit: s⁻¹
measuredValue: 0.000396
--
binder: h77A-7 (antibody, V domains shown) VH: QIQLVQSGAEVKKPGSSVKVSCKASGYTFTNYGMNWVRQAPGQGLEWMGWINTYTGEPTYADDFKGRFTFTADESTSTAYMELSSLRSEDTAVYFCARYDHAMDYWGQGTLVTVSS VL: DIVMTQSPDSLSVSLGERATINCKSSQSLLNSGTRKNYLAWYQQKPGQPPRLLIYWTSTRESGVPDRFSGSGSGTDFTLTINTLQAEDVAVYYCKQSYTLYTFGQGTKLEIK
quantityUnit: s⁻¹
measuredValue: 0.000488
--
binder: h77A-12 (antibody, V domains shown) VH: QVQLQQSGPEVKKPGASVKISCKTSGYTFTNYGMNWVRQAPGQGLEWMGWINTYTGEPTYADDFKGRVTMTTDTSTSTAYLELTGLMSDDTAVYFCARYDHAMDYWGQGTTVTVSS VL: DIVMTQSPDSLSVSLGERATINCKSSQSLLNSGTRKNYLAWYQQKPGQPPRLLIYWTSTRESGVPDRFSGSGSGTDFTLTINTLQAEDVAVYYCKQSYTLYTFGQGTKLEIK
quantityUnit: s⁻¹
measuredValue: 0.000446
--
binder: h77A-5 (antibody, V domains shown) VH: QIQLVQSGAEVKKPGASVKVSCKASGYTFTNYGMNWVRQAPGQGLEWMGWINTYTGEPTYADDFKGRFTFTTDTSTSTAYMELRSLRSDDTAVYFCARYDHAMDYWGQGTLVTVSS VL: DIVMTQSPDSLAVSLGERATINCKSSQSLLNSGTRKNYLAWYQQKPGQSPKLLIYWTSTRESGVPDRFSGSGSGTDFTLTISSLQAEDVAVYYCKQSYTLYTFGGGTKLEIK
quantityUnit: s⁻¹
measuredValue: 0.000353

// data source = patent US20250084155A1
